Ki values by entry
# experimental system: Melatonin receptor type 1B (Homo sapiens, UniProt P49286)
# Sequence (P49286 whole entry): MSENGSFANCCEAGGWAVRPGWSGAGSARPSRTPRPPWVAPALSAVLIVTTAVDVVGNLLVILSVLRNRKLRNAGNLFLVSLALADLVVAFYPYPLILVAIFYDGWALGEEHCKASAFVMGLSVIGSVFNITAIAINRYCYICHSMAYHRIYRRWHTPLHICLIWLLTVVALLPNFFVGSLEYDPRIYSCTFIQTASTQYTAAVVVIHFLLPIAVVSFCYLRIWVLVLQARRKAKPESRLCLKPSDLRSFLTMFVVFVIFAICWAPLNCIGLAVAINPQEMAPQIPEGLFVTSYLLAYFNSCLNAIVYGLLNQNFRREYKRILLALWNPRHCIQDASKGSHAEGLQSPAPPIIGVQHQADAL
# experimental details: Displacement of [125I]2-iodomelatonin from human recombinant MT2 receptor expressed in HEK293 cells after 2 hrs by gamma counting
The figure you give is taken to be in nM; do not add the unit.

[
  {
    "compound": "CNC(=O)N/C=C/c1c(OC)ccc2ccc(OC)cc12",
    "assay value": 0.3
  },
  {
    "compound": "COc1ccc2cccc([C@@H]3C[C@H]3NC(C)=O)c2c1 (racemic)",
    "assay value": 0.7
  }
]

Now for a further compound.
input: Fill blank: measured Ki of the compound COc1ccc2cccc(/C=C/NC(C)=O)c2c1 is ____.
output: 0.03

Value source: ChEMBL document CHEMBL2311490
